Hi there, I'd appreciate the recorded log10(MIC) for every entry that follows.
- System: Escherichia coli
- testName: Inhibition of DHPS in Escherichia coli assessed as antibacterial activity by measuring inhibition of bacterial growth incubated for 24 hrs by microbroth dilution method
Note the log scale: values are log10 of MIC expressed in µg/mL.

log10(MIC) reading for CN/C(S[C@@H]1O[C@H](COC(C)=O)[C@@H](OC(C)=O)[C@H](OC(C)=O)[C@H]1OC(C)=O)=C(/C#N)C(=O)Nc1ccc(S(=O)(=O)Nc2onc(C)c2C)cc1 : 0.59

log10(MIC) reading for CC(=O)OC[C@H]1O[C@@H](S/C(Nc2ccccc2)=C(\C#N)C(=O)Nc2ccc(S(=O)(=O)Nc3onc(C)c3C)cc2)[C@H](OC(C)=O)[C@@H](OC(C)=O)[C@H]1OC(C)=O : 2.10

log10(MIC) reading for CN/C(S[C@@H]1O[C@H](COC(C)=O)[C@H](OC(C)=O)[C@H](OC(C)=O)[C@H]1OC(C)=O)=C(/C#N)C(=O)Nc1ccc(S(=O)(=O)Nc2onc(C)c2C)cc1 : 1.19

log10(MIC) reading for CCN/C(S[C@@H]1O[C@H](COC(C)=O)[C@H](OC(C)=O)[C@H](OC(C)=O)[C@H]1OC(C)=O)=C(/C#N)C(=O)Nc1ccc(S(=O)(=O)Nc2onc(C)c2C)cc1 : 0.89

log10(MIC) reading for Cc1noc(NS(=O)(=O)c2ccc(N)cc2)c1C : 1.80

log10(MIC) reading for C=CCN/C(S[C@@H]1O[C@H](COC(C)=O)[C@@H](OC(C)=O)[C@H](OC(C)=O)[C@H]1OC(C)=O)=C(/C#N)C(=O)Nc1ccc(S(=O)(=O)Nc2onc(C)c2C)cc1 : 0.59

log10(MIC) reading for CCN/C(S)=C(/C#N)C(=O)Nc1ccc(S(=O)(=O)Nc2onc(C)c2C)cc1 : 1.80

log10(MIC) reading for Cc1noc(NS(=O)(=O)c2ccc(NC(=O)/C(C#N)=C(/S)NC34CC5CC(CC(C5)C3)C4)cc2)c1C : 1.80

log10(MIC) reading for CCS/C(NC)=C(\C#N)C(=O)Nc1ccc(S(=O)(=O)Nc2onc(C)c2C)cc1 : 0.89

log10(MIC) reading for C=CCN/C(S[C@@H]1O[C@H](COC(C)=O)[C@H](OC(C)=O)[C@H](OC(C)=O)[C@H]1OC(C)=O)=C(/C#N)C(=O)Nc1ccc(S(=O)(=O)Nc2onc(C)c2C)cc1 : 0.89

log10(MIC) reading for CCN/C(S[C@@H]1O[C@H](COC(C)=O)[C@@H](OC(C)=O)[C@H](OC(C)=O)[C@H]1OC(C)=O)=C(/C#N)C(=O)Nc1ccc(S(=O)(=O)Nc2onc(C)c2C)cc1 : 0.89

log10(MIC) reading for C=CCN/C(SCC)=C(/C#N)C(=O)Nc1ccc(S(=O)(=O)Nc2onc(C)c2C)cc1 : -0.01

log10(MIC) reading for C=CCN/C(S)=C(/C#N)C(=O)Nc1ccc(S(=O)(=O)Nc2onc(C)c2C)cc1 : 0.29

log10(MIC) reading for CN/C(S)=C(/C#N)C(=O)Nc1ccc(S(=O)(=O)Nc2onc(C)c2C)cc1 : 0.29

log10(MIC) reading for CCN/C(SCC)=C(/C#N)C(=O)Nc1ccc(S(=O)(=O)Nc2onc(C)c2C)cc1 : 0.29
